Record form. Attribute: phenotypically active. Fill in for each entry.
- Tested on: WPMY1-TUBA1B-RELA
- TEST_PROTOCOL: phenotypically active (imaging signature differs from DMSO and reproducible) at any of 0.3-9 uM (binary (1 = active, 0 = inactive)); higher = active
- RUN_PARAMETERS: treatment time: 24 h
Counter-ions that a name gives are not always drawn.

Query: Need phenotypically active of CC(C)c1ccc2oc3nc(N)c(C(=O)O)cc3c(=O)c2c1 , thanks.
Reply: 0 (inactive)

Query: Need phenotypically active of CC(=O)[C@@]1(O)CC[C@H]2[C@@H]3C[C@H](C)C4=CC(=O)C=C[C@]4(C)[C@@]3(F)[C@@H](O)C[C@@]21C , thanks.
Reply: 0 (inactive)

Query: Need phenotypically active of CCc1cncnc1N1CCN(Cc2nc3cc(C(F)(F)F)ccc3[nH]2)CC1 , thanks.
Reply: 1 (active)

Query: Need phenotypically active of CN1CCN(c2ccc(-c3cccc(CN4CCOCC4)c3)cc2NC(=O)c2c[nH]c(=O)cc2C(F)(F)F)CC1 , thanks.
Reply: 1 (active)

Query: Need phenotypically active of Nc1ccn([C@@H]2O[C@H](CO)[C@@H](O)[C@H]2O)c(=O)n1 , thanks.
Reply: 0 (inactive)

Query: Need phenotypically active of OC(CCN1CCCCC1)(c1ccccc1)C1CCCCC1 (centres undefined) , thanks.
Reply: 0 (inactive)

Query: Need phenotypically active of Cc1noc(C)c1Cn1cc(C#N)c2cc(Oc3ccc(NC(=O)[C@@H]4CCCN4)cc3)ccc21 , thanks.
Reply: 1 (active)

Query: Need phenotypically active of CCC(=O)OCC(=O)[C@@]1(OC(=O)CC)[C@@H](C)C[C@H]2[C@@H]3CCC4=CC(=O)C=C[C@]4(C)[C@@]3(Cl)[C@@H](O)C[C@@]21C [beclomethasone-dipropionate] , thanks.
Reply: 0 (inactive)

Query: Need phenotypically active of CC1=C(/C=C/C(C)=C\C=C\C(C)=C\C(=O)O)C(C)(C)CCC1 , thanks.
Reply: 1 (active)

Query: Need phenotypically active of CCCN[C@H]1CCc2nc(N)sc2C1 [pramipexole] , thanks.
Reply: 0 (inactive)

Query: Need phenotypically active of N=C(N)NC(=O)Cc1c(Cl)cccc1Cl , thanks.
Reply: 0 (inactive)

Query: Need phenotypically active of CC[N+](C)(CC)CCOC(=O)C1c2ccccc2Oc2ccccc21 , thanks.
Reply: 0 (inactive)

Query: Need phenotypically active of Nc1nnc(Sc2ncc([N+](=O)[O-])s2)s1 , thanks.
Reply: 0 (inactive)

Query: Need phenotypically active of O=P(O)(O)C(O)(Cn1ccnc1)P(=O)(O)O , thanks.
Reply: 0 (inactive)

Query: Need phenotypically active of COC(=O)[C@@H]1[C@H]2C[C@H]3c4[nH]c5ccccc5c4CCN3C[C@@H]2CC[C@@H]1O [Yohimbine hydrochloride] , thanks.
Reply: 0 (inactive)

Query: Need phenotypically active of CCC(=O)N1CCOc2c(cc(-c3ccc(OC)c(OC)c3)cc2OC[C@H]2CCCN(C)C2)C1 , thanks.
Reply: 0 (inactive)

Query: Need phenotypically active of CO[C@H]1C=CC=C(C)C(=O)NC2=CC(=O)C(NCCN(C)C)=C(C[C@@H](C)C[C@H](OC)[C@H](O)[C@@H](C)C=C(C)[C@@H]1OC(N)=O)C2=O [17-DMAG hydrochloride] , thanks.
Reply: 1 (active)

Query: Need phenotypically active of O=C1NC(=O)C(c2ccccc2[N+](=O)[O-])=C1Nc1ccc(O)c(Cl)c1 , thanks.
Reply: 0 (inactive)

Query: Need phenotypically active of C#C[C@]1(O)CC[C@H]2[C@@H]3CCC4=CC(=NO)CC[C@@H]4[C@H]3CC[C@@]21CC , thanks.
Reply: 0 (inactive)

Query: Need phenotypically active of Cc1n[nH]c2ccc(-c3cncc(OC[C@@H](N)Cc4ccccc4)c3)cc12 , thanks.
Reply: 1 (active)

Query: Need phenotypically active of S=C(S)N1CCCC1 [Pyrrolidinedithiocarbamate ammonium] , thanks.
Reply: 0 (inactive)

Query: Need phenotypically active of NS(=O)(=O)c1cc2c(cc1Cl)NC(C1CC3C=CC1C3)NS2(=O)=O (centres undefined) [cyclothiazide] , thanks.
Reply: 0 (inactive)

Query: Need phenotypically active of C=CC(=O)Nc1cccc(CN2C(=O)N(c3c(Cl)c(OC)cc(OC)c3Cl)Cc3cnc(NCCCCN(CC)CC)nc32)c1 [FIIN 1 hydrochloride] , thanks.
Reply: 1 (active)

Query: Need phenotypically active of O=C(/C=C/c1ccc(OCc2ccccc2)cc1)c1c(O)cc(OCc2ccccc2)cc1OCc1ccccc1 [4,2,4'-Tribenzyloxy-6'-hydroxychalcone] , thanks.
Reply: 0 (inactive)

Query: Need phenotypically active of C[C@]1(OC(=O)/C=C/c2ccccc2)C[C@@H](O)[C@]2(O)C=CO[C@@H](O[C@@H]3O[C@H](CO)[C@@H](O)[C@H](O)[C@H]3O)[C@@H]21 [Harpagoside] , thanks.
Reply: 0 (inactive)

Query: Need phenotypically active of CN(C)CCOC(c1ccccc1)c1ccccc1 [diphenhydramine] , thanks.
Reply: 1 (active)

Query: Need phenotypically active of COC(=O)/C=C/c1cccc(N(Cc2ccc(-c3ccc(N(C)C)cc3)cc2)C(=O)C2CCCCC2)c1 , thanks.
Reply: 0 (inactive)

Query: Need phenotypically active of COc1ccc2cc1Oc1ccc(cc1)C[C@H]1c3cc(c(OC)cc3CCN1C)Oc1c(OC)c(OC)cc3c1[C@H](C2)N(C)CC3 , thanks.
Reply: 1 (active)

Query: Need phenotypically active of CNC(=O)c1c(-c2ccc(F)cc2)oc2cc(N(CCO)S(C)(=O)=O)c(C3CC3)cc12 , thanks.
Reply: 0 (inactive)

Query: Need phenotypically active of c1ccc2c(c1)CCCC2C1=NCCN1 (centres undefined) [tetrahydrozoline] , thanks.
Reply: 0 (inactive)

Query: Need phenotypically active of COc1cc(C(=O)N2CCC(N3CCN(C)CC3)CC2)ccc1Nc1ncc2c(n1)N(C)c1ccccc1C(=O)N2C , thanks.
Reply: 1 (active)

Query: Need phenotypically active of COc1ccc(S(=O)(=O)ON=C2C=C(C)C(=O)C(C)=C2)cc1 , thanks.
Reply: 1 (active)

Query: Need phenotypically active of Clc1ccccc1C(c1ccccc1)(c1ccccc1)n1ccnc1 , thanks.
Reply: 0 (inactive)

Query: Need phenotypically active of CN(C)CC(=O)Nc1ccc2[nH]c(=O)c3ccccc3c2c1 [PJ 34 hydrochloride] , thanks.
Reply: 1 (active)

###

- System: HepG2-GM130-SQSTM1
- TEST_PROTOCOL: phenotypically active (imaging signature differs from DMSO and reproducible) at any of 0.3-9 uM (binary (1 = active, 0 = inactive)); higher = active
- RUN_PARAMETERS: treatment time: 24 h
# valid calls are TRUE = active, FALSE = inactive; nothing else

Query: Recorded test outcome, item COc1cc(OC)c2c(=O)[nH]c(-c3cc(C)c(OCCO)c(C)c3)nc2c1 [apabetalone]
Reply: TRUE

Query: Recorded test outcome, item Cc1ccnn1-c1ccc(C(=O)N2CCN(S(=O)(=O)c3ccc(Cl)c(C(F)(F)F)c3)CC2)cc1
Reply: FALSE

Query: Recorded test outcome, item CC(=O)Nc1ccc(C(=O)Nc2ccccc2N)cc1
Reply: TRUE

Query: Recorded test outcome, item O=S(=O)(N[C@H](CO)C(C(F)(F)F)C(F)(F)F)c1ccc(Cl)s1 [begacestat]
Reply: FALSE

Query: Recorded test outcome, item CC(C(=O)O)c1cccc(C(=O)c2ccccc2)c1 (centres undefined) [ketoprofen]
Reply: FALSE

Query: Recorded test outcome, item CC(Oc1ccc(O)cc1)(P(=O)(O)O)P(=O)(O)O
Reply: FALSE

Query: Recorded test outcome, item O=C(Nc1ccc(-c2ccnc(Nc3ccc(N4CCOCC4)cc3)n2)cc1)[C@@H]1CCCN1
Reply: TRUE

Query: Recorded test outcome, item CC1(C)CCC(C)(C)c2cc(C3(c4ccc(C(=O)O)cc4)OCCO3)ccc21
Reply: FALSE

Query: Recorded test outcome, item CC1(C)NC(=O)N(c2ccc([N+](=O)[O-])c(C(F)(F)F)c2)C1=O [nilutamide]
Reply: FALSE

Query: Recorded test outcome, item CC(C)n1c(/C=C/[C@@H](O)C[C@@H](O)CC(=O)O)c(-c2ccc(F)cc2)c2ccccc21.CC(C)n1c(/C=C/[C@H](O)C[C@H](O)CC(=O)O)c(-c2ccc(F)cc2)c2ccccc21 [Fluvastatin sodium]
Reply: TRUE

Query: Recorded test outcome, item Nc1ncnc2c1c(-c1cnc3[nH]ccc3c1)nn2C1CCCC1
Reply: TRUE

Query: Recorded test outcome, item CCOc1cc(N2CCC(O)CC2)ccc1Nc1ncc2c(n1)N(C)c1ccccc1C(=O)N2C
Reply: TRUE

Query: Recorded test outcome, item Nc1ccn([C@@H]2O[C@H](CO)[C@@H](O)[C@@H]2O)c(=O)n1 [cytarabine]
Reply: TRUE

Query: Recorded test outcome, item CC(CN(C)C)CN1c2ccccc2Sc2ccccc21.CC(CN(C)C)CN1c2ccccc2Sc2ccccc21 (centres undefined) [alimemazine]
Reply: TRUE

Query: Recorded test outcome, item O=C(Nc1cccnc1)c1cc(-c2ccnc(F)c2)ccc1OCc1ccccc1
Reply: FALSE

Query: Recorded test outcome, item NS(=O)(=O)c1cc2c(cc1Cl)NC(C1CC3C=CC1C3)NS2(=O)=O (centres undefined) [cyclothiazide]
Reply: FALSE

Query: Recorded test outcome, item COc1cc2c(cc1OCCCN1CCCC1)N=C(N)C21CCC1
Reply: FALSE

Query: Recorded test outcome, item CC(C)NCCCC1(C(N)=O)c2ccccc2-c2ccccc21 [indecainide]
Reply: FALSE

Query: Recorded test outcome, item CC(C)(C)c1cc(/C=C(\C#N)C(N)=S)cc(C(C)(C)C)c1O
Reply: TRUE
